Recorded inhibition values for a group of compounds are listed next.
molecular target: Histamine H2 receptor (Homo sapiens); test: Displacement of [3H]tiotidine from human H2 receptor expressed in monkey COS7 cells at 10 uM; type: cell-based; conditions: COS-7
Hi! Could you send only the number? It should be in %, unit omitted.

Some entries whose results are on file:
C[C@@H]1CCCN1CCN1CCN(CCN2CCC[C@@H]2C)C1=C(C#N)C#N :: -9
CC1CCCN1CCN1CCN(CCN2CCCC2C)C1=C(C#N)C#N (racemic) :: 0
C[C@@H]1CCCN1CCN1CCN(CCN2CCC[C@H]2C)C1=C(C#N)C#N :: -1
C[C@H]1CCCN1CCN1CCN(CCN2CCC[C@@H]2C)C1=C(C#N)C#N :: -2
N#CC(C#N)=C1N(CCCN2CCCCC2)CCN1CCCN1CCCCC1 :: -4

Using known records, supply inhibition for CC1CCCN1CCN1CCN(CCN2CCCCC2)C1=C(C#N)C#N (racemic)
-4

* * *

Entries annotated with measured inhibition
molecular target: Histamine H3 receptor (Homo sapiens, UniProt Q9Y5N1); assay: Displacement of [3H]N-alpha-methylhistamine from human cloned histamine H3 receptor expressed in monkey COS7 cells at 0.1 uM; assay type: cell-based; conditions: COS-7
Sequence (Q9Y5N1 whole entry): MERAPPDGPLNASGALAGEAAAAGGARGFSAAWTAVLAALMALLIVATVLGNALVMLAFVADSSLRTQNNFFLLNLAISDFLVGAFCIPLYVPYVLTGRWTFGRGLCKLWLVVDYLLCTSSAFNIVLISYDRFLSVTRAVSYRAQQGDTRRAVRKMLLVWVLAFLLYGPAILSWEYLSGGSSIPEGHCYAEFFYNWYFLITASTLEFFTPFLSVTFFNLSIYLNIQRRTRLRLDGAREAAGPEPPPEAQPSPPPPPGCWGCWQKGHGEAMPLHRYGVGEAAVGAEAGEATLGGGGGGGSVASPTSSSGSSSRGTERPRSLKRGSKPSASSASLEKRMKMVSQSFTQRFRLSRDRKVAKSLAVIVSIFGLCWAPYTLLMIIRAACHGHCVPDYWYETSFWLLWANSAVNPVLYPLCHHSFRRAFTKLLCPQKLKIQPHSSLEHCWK
Lab book: enter the figure in %, no units written.

N#CC(C#N)=C1N(CCCCN2CCCCC2)CCN1CCCCN1CCCCC1 :: 43
N#CC(C#N)=C1N(CCN2CCCCC2)CCN1CCN1CCC(O)C1 (racemic) :: 49

Give inhibition for the following molecule: N#CC(C#N)=C1N(CCN2CCCCC2)CCN1CCN1CCOCC1
37

Query inhibition for N#CC(C#N)=C1N(CCCCN2CCCCC2)CCN1CCCN1CCCCC1
48

Determine from records and report inhibition for CN1CCN(CCN2CCN(CCN3CCCCC3)C2=C(C#N)C#N)CC1
37

* * *

Record type: pKi measurement. Applies to: Histamine H3 receptor (Rattus norvegicus, UniProt Q9QYN8)
Remember, pKi is on a log scale: it is -log10 of the molar concentration.

Some molecules with known pKi results, for comparison:
CC1CCCN1CCN1CCN(CCN2CCCC2C)C1=C(C#N)C#N (racemic) :: 9.17
CC1CCCN1CCN1CCN(CCN2CCCCC2)C1=C(C#N)C#N (racemic) :: 9.16
C[C@@H]1CCCN1CCN1CCN(CCN2CCC[C@@H]2C)C1=C(C#N)C#N :: 9.11

Please look at N#CC(C#N)=C1N(CCCCN2CCCCC2)CCN1CCN1CCCCC1 and tell me its recorded pKi on Histamine H3 receptor (Rattus norvegicus, UniProt Q9QYN8).
Sequence (Q9QYN8 whole entry): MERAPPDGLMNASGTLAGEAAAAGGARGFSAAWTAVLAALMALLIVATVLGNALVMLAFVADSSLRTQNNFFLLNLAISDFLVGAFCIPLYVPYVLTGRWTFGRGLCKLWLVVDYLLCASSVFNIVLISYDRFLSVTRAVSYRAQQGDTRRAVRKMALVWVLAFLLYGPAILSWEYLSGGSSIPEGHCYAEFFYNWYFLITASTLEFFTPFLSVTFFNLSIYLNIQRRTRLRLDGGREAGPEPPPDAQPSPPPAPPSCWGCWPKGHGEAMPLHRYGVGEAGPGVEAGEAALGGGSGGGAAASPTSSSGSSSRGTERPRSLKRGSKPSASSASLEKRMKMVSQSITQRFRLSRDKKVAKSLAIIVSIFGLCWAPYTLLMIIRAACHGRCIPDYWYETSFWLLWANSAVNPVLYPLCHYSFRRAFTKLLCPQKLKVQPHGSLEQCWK
8.07

Write down measured pKi (Histamine H3 receptor (Rattus norvegicus, UniProt Q9QYN8)) for this molecule. c1cc(OCCCN2CCCCC2)ccc1CN1CCCCC1
8.90

Provide the reported pKi (system: Histamine H3 receptor (Rattus norvegicus, UniProt Q9QYN8)) for CCN(CCCN(C)C)CCN1CCN(Cc2cccc3ccccc23)C1=C(C#N)C#N
7.12

* * *

target: Histamine H4 receptor (Homo sapiens) (UniProt Q9H3N8); test: Displacement of [3H]histamine from human H4 receptor expressed in monkey COS7 cells at 1 uM; type: cell-based; conditions: COS-7
Sequence (Q9H3N8 whole entry): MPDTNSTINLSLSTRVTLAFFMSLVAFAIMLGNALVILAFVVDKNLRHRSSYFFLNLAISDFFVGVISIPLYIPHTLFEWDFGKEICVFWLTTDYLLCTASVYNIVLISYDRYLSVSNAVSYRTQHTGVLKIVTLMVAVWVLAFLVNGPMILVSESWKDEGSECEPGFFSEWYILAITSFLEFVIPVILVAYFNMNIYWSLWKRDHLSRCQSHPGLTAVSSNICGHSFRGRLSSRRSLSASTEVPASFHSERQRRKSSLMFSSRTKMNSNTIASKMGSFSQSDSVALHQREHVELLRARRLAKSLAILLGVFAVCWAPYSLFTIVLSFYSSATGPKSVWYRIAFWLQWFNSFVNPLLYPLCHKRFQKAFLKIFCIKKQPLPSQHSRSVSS
Readings of inhibition for the listed compounds
# output: bare number, implied unit %

CC1CCCN1CCN1CCN(CCN2CCCCC2)C1=C(C#N)C#N (racemic) :: 2

Provide inhibition, system Histamine H4 receptor (Homo sapiens) (UniProt Q9H3N8), entry N#CC(C#N)=C1N(CCCN2CCCCC2)CCN1CCCN1CCCCC1
11

Report its inhibition with Histamine H4 receptor (Homo sapiens) (UniProt Q9H3N8) as the test system: C[C@@H]1CCCN1CCN1CCN(CCN2CCC[C@@H]2C)C1=C(C#N)C#N
6

Fill in inhibition for C[C@H]1CCCN1CCN1CCN(CCN2CCC[C@@H]2C)C1=C(C#N)C#N tested with Histamine H4 receptor (Homo sapiens) (UniProt Q9H3N8).
9

// fetch inhibition for C[C@@H]1CCCN1CCN1CCN(CCN2CCC[C@H]2C)C1=C(C#N)C#N ; system: Histamine H4 receptor (Homo sapiens) (UniProt Q9H3N8)
9

Please look at CC1CCCN1CCN1CCN(CCN2CCCC2C)C1=C(C#N)C#N (racemic) and tell me its recorded inhibition on Histamine H4 receptor (Homo sapiens) (UniProt Q9H3N8).
-8
